Listed here: items and their measured concentration at 5 h.
Experiment: Brain and plasma exposure after 5 hour intravenous infusion
Type: in vivo, Sprague Dawley rats
Conditions: male, Sprague Dawley, rat, brain, intravenous, 3 mg/kg, 3 mg/kg IV infusion over 5 h, 5 h, mean n=6; Compound 2 as metabolite; read-out: Brain Tissue Concentration
State just the number; it will be interpreted in ng/g.

C=CC(=O)Nc1cc(Nc2nccc(-n3ccc4cccnc43)n2)c(OC)cc1N(C)CCN(C)C :: 2240
COc1cc2ncnc(Nc3ccc(F)c(Cl)c3)c2cc1OCCCN1CCOCC1 [Gefitinib, reference compound] :: 154

Query block: What value of concentration at 5 h has been recorded for this entry: C=CC(=O)Nc1cc(Nc2nccc(-n3ccc4cccnc43)n2)c(OC)cc1N(C)CCNC
Result block: 21.9
